Overview of recorded protein stability index for various variants
B1: TNNI2 (parent)
chain: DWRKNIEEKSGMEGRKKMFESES

Variants of: B1
assayText: protein stability index of a GFP-peptide fusion (GPS, HEK-293T) (PSI 1-6); higher = more stable;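 note: lentivirally expressed fusions sorted by FACS into six bins by GFP to DsRed ratio, PSI derived from sequencing read proportions per bin multiplied by bin number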
conditionSet: c terminus: native
metricName: protein stability index

M12I : 3.01
K17V : 3.07
E7M : 2.25
M18D : 6
E13H : 2.19
N5S : 2.31
